// provenance: patent US20260083704A1

molecular target: GST-LXRβ ligand-binding domain (Homo sapiens); construct: amino acids 156-461; NP009052; test: TR-FRETβ activity assay (NCoA3 coactivator peptide recruitment); conditions: 1 μM 24(S)-25-epoxycholesterol prestimulation
Provide the reported EC50 of each item.

>>> meas_value("Cc1ccc(S(=O)(=O)n2c(-c3cccc(N4CC(C(=O)O)C4)c3)c(-c3ccoc3C#N)c3cc(F)ccc32)cc1")
"1 to 10 µM"
>>> meas_value("Cc1ccc(S(=O)(=O)n2c(-c3cccc(C4CC4C(=O)O)c3)c(-c3ccsc3C#N)c3ncccc32)cc1 (stereo not shown)")
"1 to 10 µM"
>>> meas_value("N#Cc1sccc1-c1c(-c2cccc(-c3ccc(C(=O)O)cc3Cl)c2)n(S(=O)(=O)c2ccc(F)cc2)c2ccc(F)cc12")
"0.1 to 1 µM"

Give EC50 for each of the items listed below.
1. Cc1ccc(S(=O)(=O)n2c(-c3cc(C4CC4C(=O)O)cs3)c(-c3ccsc3C#N)c3ccccc32)cc1 (stereo not shown)
2. O=C(O)c1ccc(-c2cccc(-c3c(-c4ccsc4C4COC4)c4cc(F)ccc4n3S(=O)(=O)c3ccc(C(F)F)cc3)c2)c(Cl)c1
3. N#Cc1ccc(OCC(=O)O)cc1-c1c(-c2cccs2)n(S(=O)(=O)c2ccc(Cl)cc2)c2ccccc12
4. COc1c(C(=O)O)ccc(-c2cccc(-c3c(-c4ccsc4C#N)c4cc(F)ccc4n3S(=O)(=O)c3ccc(C)cc3)c2)c1Cl

A)
1 to 10 µM
< 0.1 µM
1 to 10 µM
< 0.1 µM

---

assay: Phase 1 study, MAD cohorts: plasma pharmacokinetics; assay type: in vivo, human; details: both sexes, human, plasma, oral, 6 mg, healthy subjects, MAD Day 14, 6 mg, fed; median; read-out: t1/2 (converted)
READOUT_NAME: half-life (h)
Give bare numbers, in h.

Q) Give the value of half-life reported for the following: N#Cc1cccc(C#N)c1-c1c(-c2cccc(-c3ccc(C(=O)NCC(=O)O)cc3Cl)c2)n(S(=O)(=O)c2ccc(C(F)F)cc2)c2ccc(F)cc12 [Compound 21/3]
A) 1.51

---

Target: LXRβ (Homo sapiens, UniProt P55055)
Sequence (P55055 1-460): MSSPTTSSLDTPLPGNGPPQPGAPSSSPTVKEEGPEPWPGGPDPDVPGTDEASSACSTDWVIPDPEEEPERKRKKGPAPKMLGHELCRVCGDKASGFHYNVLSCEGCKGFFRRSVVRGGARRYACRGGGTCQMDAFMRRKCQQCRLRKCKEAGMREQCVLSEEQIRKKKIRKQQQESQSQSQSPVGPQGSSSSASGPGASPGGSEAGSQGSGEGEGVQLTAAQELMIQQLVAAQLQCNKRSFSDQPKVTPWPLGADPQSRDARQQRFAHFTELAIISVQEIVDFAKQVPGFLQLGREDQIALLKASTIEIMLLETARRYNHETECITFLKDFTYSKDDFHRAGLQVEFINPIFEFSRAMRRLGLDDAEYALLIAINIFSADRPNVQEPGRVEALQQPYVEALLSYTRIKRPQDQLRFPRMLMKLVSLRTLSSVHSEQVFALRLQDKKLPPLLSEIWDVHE
Assay: LXR Gal4 reporter transient transfection assay (mammalian two-hybrid, HEK293), LXRβ
Assay type: cell-based
Set-up: LXRβ (amino acids 156-461); expressed in transfected cells; host or cells: HEK293
Conditions: full length (FL) LXRβ, HEK293; read-out: FL-M2H Gal4β
Provide the reported EC50 of each item.

Some molecules with recorded EC50:
>>> meas_value("O=C(O)C1CC1c1cccc(-c2c(-c3c(Cl)cccc3Cl)c3cc(F)ccc3n2S(=O)(=O)c2ccc(C(F)F)cc2)c1 (stereo not shown)")
"< 0.1 µM"
>>> meas_value("COC(=O)C(C)(C)N(C)C(=O)C1CN(c2cccc(-c3c(-c4ccsc4C#N)c4cc(F)ccc4n3S(=O)(=O)c3ccc(C)cc3)c2)C1")
"0.1 to 1 µM"
>>> meas_value("Cc1ccc(S(=O)(=O)n2c(-c3cccc(-c4cc(C(=O)O)nn4C)c3)c(-c3ccsc3C#N)c3cc(F)ccc32)cc1")
"0.1 to 1 µM"
>>> meas_value("Cc1ccc(S(=O)(=O)n2c(-c3cccc(-c4ccc(C(=O)O)cc4)c3)c(-c3ccsc3C#N)c3cc(F)cc(O)c32)cc1")
"< 0.1 µM"
>>> meas_value("Cc1ccc(S(=O)(=O)n2c(-c3cccc(N4CC(C(=O)O)C4)c3)c(-c3ccsc3C#N)c3cc(F)ccc32)c(F)c1")
"0.1 to 1 µM"
>>> meas_value("Cc1ccc(S(=O)(=O)n2c(-c3ccnc(-c4ccc(C(=O)O)cc4)c3)c(-c3ccsc3C#N)c3cc(F)ccc32)cc1")
"< 0.1 µM"

Then there is this molecule:
Q) Give the value of EC50 reported for the following: Cc1ccc(S(=O)(=O)n2c(-c3cccc(-c4ccc(C(=O)O)cc4Cl)c3)c(-c3ccccc3C#N)c3cc(F)ccc32)cc1
A) < 0.1 µM
